Cited source for all entries: patent US4500526A

Protocol Notes: Mouse blood levels after single intramuscular injection
Format: in vivo, mice
Recorded Conditions: in vivo, im, 20 mg/kg
Measurement Label: concentration at 40 min (ng/mL)
Kindly answer with a numeric value in ng/mL, unit omitted.

For orientation, consider the following solved cases.
- Nc1nc(/C(=N/OC2(C(=O)O)CCC2)C(=O)NC2C(=O)N3C(C(=O)[O-])=C(C[n+]4ccc5scnc5c4)CS[C@H]23)cs1 (stereo partly shown): 4300
- CC(C)(O/N=C(\C(=O)NC1C(=O)N2C(C(=O)[O-])=C(C[n+]3ccc4scnc4c3)CS[C@H]12)c1csc(N)n1)C(=O)O (stereo partly shown): 6100

Request: // fetch concentration at 40 min given entry CO/N=C(\C(=O)NC1C(=O)N2C(C(=O)[O-])=C(C[n+]3ccc4sc(C)nc4c3)CSC12)c1csc(N)n1 (stereo not shown)
Result: 5900

Request: Please supply the value of reported concentration at 40 min for the item CO/N=C(\C(=O)NC1C(=O)N2C(C(=O)[O-])=C(C[n+]3ccc4sc(NC(=O)OC)nc4c3)CS[C@H]12)c1csc(N)n1 (stereo partly shown)
Result: 6700
